# Test system: CCRF-CEM leukemia
# assay.summary: NCI tumour cell line growth inhibition, 48 h
property.name: TGI

Worked examples follow.
compound=c1ccc2c(c1)SCCc1cn[nH]c1-2 property_name=TGI observed_result="> 100 µM"
compound="CCOC(=O)c1csc(C(CSCc2ccc(OC)cc2)N2C(=O)c3ccccc3C2=O)n1 (stereo not given)" property_name=TGI observed_result="> 100 µM"
compound=COc1cc2c(c(OC)c1OC)C(=O)[C@@H](O)[C@H]2NC(N)=O property_name=TGI observed_result="> 100 µM"

Incoming: Give the reported TGI for this compound. C=C1C(=O)O[C@H]2[C@H]1CC/C(COC(=O)CCCCCCCC(=O)OC/C1=C/CC[C@@]3(C)O[C@H]3[C@H]3OC(=O)C(=C)[C@@H]3CC1)=C\CC[C@@]1(C)O[C@@H]21
Outgoing: 7.49 µM

Incoming: Give the reported TGI for this compound. Cc1cc2c3c([n+](C)c4ccc(F)cc4c3c1)-c1cc(F)ccc1N2C
Outgoing: > 100 µM
